target: carbonyl-reducing enzymes of baboon placental microsomes; format: biochemical; settings: read-out: IC50 (EB formation, placental microsomes)
readout: IC50
Remember to quote the unit after the number.

Asked: # get_value(readout= IC50, system= carbonyl-reducing enzymes of baboon placental microsomes) for CC1(C)[C@@H](O)CC[C@]2(C)[C@H]3C(=O)C=C4[C@@H]5C[C@@](C)(C(=O)O)CC[C@]5(C)CC[C@@]4(C)[C@]3(C)CC[C@@H]12 [18β-GA, 18β-glycyrrhetinic acid]
Given back: 22 nM

###

test system: TB formation (bupropion carbonyl reduction); carbonyl reductase (menadione), aldo-ketoreductase (flufenamic acid); assay: in vitro; conditions: baboon (Papio cynocephalus), placental microsomes, probe bupropion 30 µM (≈Km)
readout: inhibition at 40 min

Asked: Could you tell me which inhibition at 40 min is on file for "O=C(O)c1ccccc1Nc1cccc(C(F)(F)F)c1" ?
Given back: 40%

###

test: Biotransformation of bupropion by baboon hepatic microsomes; conditions: female, baboon (Papio cynocephalus), liver microsomes, pH 7.4, apparent Km, hydroxylation of bupropion to OH-BUP, bupropion 10–400µM
readout: Km at 30 min (µM)
Express your answer in µM, writing the number without its unit.

Asked: Could you tell me which Km at 30 min is on file for CC(NC(C)(C)C)C(=O)c1cccc(Cl)c1 (stereo not shown) ?
Given back: 36

###

test: Biotransformation of bupropion by baboon hepatic microsomes; conditions: female, baboon (Papio cynocephalus), liver microsomes, pH 7.4, apparent Km, reduction of bupropion to EB
readout: Km at 30 min
Remember to quote the unit after the number.

Asked: Could you tell me which Km at 30 min is on file for CC(NC(C)(C)C)C(=O)c1cccc(Cl)c1 (stereo not shown) ?
Given back: 32 µM

###

test: Biotransformation of bupropion by baboon placental microsomes; settings: baboon (Papio cynocephalus), pH 7.4, apparent Km, reduction of bupropion to TB
readout: Km at 40 min (µM)
Express your answer in µM, writing the number without its unit.

Asked: Could you tell me which Km at 40 min is on file for CC(NC(C)(C)C)C(=O)c1cccc(Cl)c1 (stereo not shown) ?
Given back: 20

###

test system: EB formation (bupropion carbonyl reduction); carbonyl reductase (menadione), aldo-ketoreductase (flufenamic acid); experiment: in vitro; conditions: baboon (Papio cynocephalus), placental microsomes, probe bupropion 30 µM (≈Km)
readout: IC50 at 40 min (µM)
Express your answer in µM, writing the number without its unit.

>  <chemical_structure>
O=C(O)c1ccccc1Nc1cccc(C(F)(F)F)c1

>  <readout>
IC50 at 40 min

>  <recorded_value>
5.6

$$$$

// next item, IC50 at 40 min requested
Asked: Could you tell me which IC50 at 40 min is on file for "CC1=CC(=O)c2ccccc2C1=O" ?
Given back: 30.3

###

system: TB formation (bupropion carbonyl reduction); carbonyl reductase (menadione), aldo-ketoreductase (flufenamic acid); test: in vitro; conditions: baboon (Papio cynocephalus), liver microsomes, probe bupropion 30 µM (≈Km)
Reported IC50 at 40 min is given for each of the following compounds.
Express your answer in µM, writing the number without its unit.

>  <chemical_structure>
O=C(O)c1ccccc1Nc1cccc(C(F)(F)F)c1

>  <IC50 at 40 min (µM)>
11.4

$$$$

// next item, IC50 at 40 min requested
Asked: Could you tell me which IC50 at 40 min is on file for "CC1=CC(=O)c2ccccc2C1=O" ?
Given back: 47
